Experiment: Caco-2 cell monolayer membrane transport assay
Settings: human, Caco-2, Papp A-B, Sample-02, Caco-2; A-B; Sample-02

- Compound Structure: "CO[C@H]1C[C@H]2OC[C@@]2(OC(C)=O)[C@H]2[C@H](OC(=O)c3ccccc3)[C@]3(O)C[C@H](OC(=O)[C@H](O)[C@@H](NC(=O)c4ccccc4)c4ccccc4)C(C)=C([C@@H](OC(=O)N(C)C)C(=O)[C@]12C)C3(C)C"
  Papp A→B, ×10⁻⁶ cm/s: 2.68
- Compound Structure: "CO[C@H]1C(=O)[C@]2(C)CC[C@H]3OC[C@@]3(OC(C)=O)[C@H]2[C@H](OC(=O)c2ccccc2)[C@]2(O)C[C@H](OC(=O)[C@H](O)[C@H](CC(C)C)NC(=O)OC(C)(C)C)C(C)=C1C2(C)C"
  Papp A→B, ×10⁻⁶ cm/s: 6.49
- Compound Structure: "CO[C@H]1C(=O)[C@]2(C)[C@@H](OC(=O)N(C)C)C[C@H]3OC[C@@]3(OC(C)=O)[C@H]2[C@H](OC(=O)c2ccccc2)[C@]2(O)C[C@H](OC(=O)[C@H](O)[C@H](CC(C)C)NC(=O)OC(C)(C)C)C(C)=C1C2(C)C"
  Papp A→B, ×10⁻⁶ cm/s: 9.54
- Compound Structure: "CO[C@H]1C(=O)[C@]2(C)[C@@H](OC(=O)N(C)C)C[C@H]3OC[C@@]3(OC(C)=O)[C@H]2[C@H](OC(=O)c2ccccc2)[C@]2(O)C[C@H](OC(=O)[C@H](O)[C@@H](NC(=O)OC(C)(C)C)c3ccccn3)C(C)=C1C2(C)C"
  Papp A→B, ×10⁻⁶ cm/s: 4.54
